Biological target: Feline FcRn complex (FcRn-alpha subunit and beta-microglobulin) (feline)
Assay: SPR (Biacore), feline FcRn captured on SA chip, IgG flowed over, pH 7.4
reported property: Kd (nM)
Answer format: numeric, nM implied, no suffix.

# binder, Kd, nM
records = [
    ("feline IgG1a Fc mutant S428L, S434F (antibody, part only; not given: Variable domains, not shown: another chain or arm of the molecule; small tags and cut ends) constant: ASTTAPSVFPLAPSCGTTSGATVALACLVLGYFPEPVTVSWNSGALTSGVHTFPAVLQASGLYSLSSMVTVPSSRWLSDTFTCNVAHPPSNTKVDKTVRKTDHPPGPKPCDCPKCPPPEMLGGPSIFIFPPKPKDTLSISRTPEVTCLVVDLGPDDSDVQITWFVDNTQVYTAKTSPREEQFNSTYRVVSVLPILHQDWLKGKEFKCKVNSKSLPSPIERTISKAKGQPHEPQVYVLPPAQEELSRNKVSVTCLIKSFHPPDIAVEWEITGQPEPENNYRTTPPQLDSDGTYFVYSKLSVDRSHWQRGNTYTCSVLHEALHFHHTQKSLTQSPGK", 46.4),
]

Turning now to a further record.
Kd measured on feline IgG1a Fc mutant S428Y, S434Y (antibody, part only; not given: variable domains and light chain, not shown: another chain or arm of the molecule; small tags and cut ends) constant: ASTTAPSVFPLAPSCGTTSGATVALACLVLGYFPEPVTVSWNSGALTSGVHTFPAVLQASGLYSLSSMVTVPSSRWLSDTFTCNVAHPPSNTKVDKTVRKTDHPPGPKPCDCPKCPPPEMLGGPSIFIFPPKPKDTLSISRTPEVTCLVVDLGPDDSDVQITWFVDNTQVYTAKTSPREEQFNSTYRVVSVLPILHQDWLKGKEFKCKVNSKSLPSPIERTISKAKGQPHEPQVYVLPPAQEELSRNKVSVTCLIKSFHPPDIAVEWEITGQPEPENNYRTTPPQLDSDGTYFVYSKLSVDRSHWQRGNTYTCSVYHEALHYHHTQKSLTQSPGK = 24.1
